Assayed system: 5-HT1A receptors (Rattus norvegicus, UniProt P19327)
Sequence (P19327 1-422): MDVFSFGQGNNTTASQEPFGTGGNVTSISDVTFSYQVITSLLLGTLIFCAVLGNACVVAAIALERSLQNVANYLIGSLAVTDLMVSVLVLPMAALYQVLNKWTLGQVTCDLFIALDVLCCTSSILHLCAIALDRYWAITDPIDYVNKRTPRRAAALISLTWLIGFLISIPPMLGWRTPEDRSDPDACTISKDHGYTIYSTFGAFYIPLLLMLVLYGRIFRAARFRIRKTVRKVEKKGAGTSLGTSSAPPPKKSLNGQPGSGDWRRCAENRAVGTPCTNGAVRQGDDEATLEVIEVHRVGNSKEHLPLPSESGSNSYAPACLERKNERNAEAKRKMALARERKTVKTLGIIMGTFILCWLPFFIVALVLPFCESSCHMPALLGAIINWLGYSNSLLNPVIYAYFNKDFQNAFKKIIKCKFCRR
Experiment summary: 5-HT1A receptor binding experiments
Reported metric: Ki (nM)
Numbers only; they are read as nM.

See these solved cases before continuing.
>  <Compound>
O=C1CCCC(=O)N1CCCCN1CCN(c2ccc3cc([N+](=O)[O-])ccc3n2)CC1 [Compound 4]

>  <Test result>
10600

$$$$
>  <Compound>
O=C1c2ccccc2C(=O)N1CCCCN1CCN(c2ccc3cc([N+](=O)[O-])ccc3n2)CC1 [Compound 9]

>  <Test result>
59000

$$$$
>  <Compound>
O=C1CC2(CCCC2)CC(=O)N1CCCCN1CCN(c2ccc3cc([N+](=O)[O-])ccc3n2)CC1 [Compound 6]

>  <Test result>
1100

$$$$
>  <Compound>
CC1(C)CC(=O)N(CCCCN2CCN(c3ccc4c(Cl)cccc4n3)CC2)C(=O)C1 [Compound 10]

>  <Test result>
1400

$$$$
>  <Compound>
CC1(C)CC(=O)N(CCCCN2CCN(c3ccc4cc([N+](=O)[O-])ccc4n3)CC2)C(=O)C1 [Compound 8]

>  <Test result>
2100

$$$$

Enquiry: Please tell me: Ki of CC1CN(c2ccc3cc([N+](=O)[O-])ccc3n2)CCN1CCCCN1C(=O)CCCC1=O (stereo not drawn) [Compound 3] , system 5-HT1A receptors (Rattus norvegicus, UniProt P19327)?
Return: 711

The reported measurements were obtained from paper PMC3365592.
